test system: sialidase of influenza virus A/swine/Hokkaido/2/81 (H1N1); format: biochemical, swine isolate; settings: read-out: Inhibitory activity (IC50, μM) Neu5Ac-DSPE as substrate
parameter: IC50 (µM)
One number for each entry, in µM.

[in] Requested field: IC50. Item: CCCCCCCCCCCCCCCCCC(=O)CC(COC(=O)CCCCCCCCCCCCCCCCC)COP(=O)(O)OCCNCCOC1(C(=O)O)OC(C(O)C(O)CO)C(NC(C)=O)C(O)C1F (stereo not shown) [Compound 9]
[out] 125

* * *

test system: sialidase of influenza virus A/duck/273/8/78 (H2N2); type: biochemical, avian isolate; conditions: read-out: Inhibitory activity (IC50, μM) Neu5Ac-DSPE as substrate
parameter: IC50 (µM)
Give bare numbers, in µM.

[in] Look up IC50 for this compound: CCCCCCCCCCCCCCCCCC(=O)CC(COC(=O)CCCCCCCCCCCCCCCCC)COP(=O)(O)OCCNCCOC1(C(=O)O)OC(C(O)C(O)CO)C(NC(C)=O)C(O)C1F (stereo not shown) [Compound 9]
[out] 125

* * *

tested on: sialidase of influenza virus A/duck/13/2/76 (H6N1); format: biochemical, avian isolate; conditions: read-out: Inhibitory activity (IC50, μM) 4-MU-Neu5Ac as substrate
parameter: IC50 (µM)
Numbers only, in µM.

[in] // IC50 lookup, key: CCCCCCCCCCCCCCCCCC(=O)CC(COC(=O)CCCCCCCCCCCCCCCCC)COP(=O)(O)OCCNCCOC1(C(=O)O)OC(C(O)C(O)CO)C(NC(C)=O)C(O)C1F (stereo not shown)
[out] 150

* * *

system: sialidase of influenza virus A/duck/862/5/80 (H12N5); format: biochemical, avian isolate; settings: read-out: Inhibitory activity (IC50, μM) 4-MU-Neu5Ac as substrate
parameter: IC50 (µM)
Numbers only, in µM.

[in] Data request, read-out IC50, for CCCCCCCCCCCCCCCCCC(=O)CC(COC(=O)CCCCCCCCCCCCCCCCC)COP(=O)(O)OCCNCCOC1(C(=O)O)OC(C(O)C(O)CO)C(NC(C)=O)C(O)C1F (stereo not shown)
[out] 125

* * *

target: sialidase of influenza virus A/PR/8/34 (H1N1) (Influenza A virus); settings: read-out: Inhibitory activity (IC50, μM) Neu5Ac-DSPE as substrate
Sequence (P03468 whole entry): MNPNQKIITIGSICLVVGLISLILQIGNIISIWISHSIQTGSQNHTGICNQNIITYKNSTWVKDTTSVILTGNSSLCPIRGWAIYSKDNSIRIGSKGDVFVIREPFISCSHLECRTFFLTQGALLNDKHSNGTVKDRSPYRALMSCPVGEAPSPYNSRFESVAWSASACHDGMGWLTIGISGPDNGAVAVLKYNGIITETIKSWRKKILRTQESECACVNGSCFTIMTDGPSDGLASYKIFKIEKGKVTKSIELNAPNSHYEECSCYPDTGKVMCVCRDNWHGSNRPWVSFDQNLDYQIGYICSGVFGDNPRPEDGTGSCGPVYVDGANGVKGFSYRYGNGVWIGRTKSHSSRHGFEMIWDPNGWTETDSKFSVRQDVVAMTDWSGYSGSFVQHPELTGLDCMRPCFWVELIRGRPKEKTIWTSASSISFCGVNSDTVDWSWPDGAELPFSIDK
parameter: IC50 (µM)
Answers are plain numbers, in µM.

[in] Short answer please: IC50, sialidase of influenza virus A/PR/8/34 (H1N1) (Influenza A virus), entry CCCCCCCCCCCCCCCCCC(=O)CC(COC(=O)CCCCCCCCCCCCCCCCC)COP(=O)(O)OCCNCCOC1(C(=O)O)OC(C(O)C(O)CO)C(NC(C)=O)C(O)C1F (stereo not shown) [Compound 9]
[out] 31.3
